Kindly supply the reported protein stability index values for the records listed here.
B1: ZNF24 (parent)
chain: YGETCFPKGRFERKRNPSRKKQHI

Variants of: B1
Experiment: protein stability index of a GFP-peptide fusion (GPS, HEK-293T) (PSI 1-6); higher = more stable;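 further: lentivirally expressed fusions sorted by FACS into six bins by GFP to DsRed ratio, PSI derived from sequencing read proportions per bin multiplied by bin number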
Settings: c terminus: a fixed tail appended
Number only, no unit.

# variant YGETCFPKERFERKRNPSRKKQHI ; its protein stability index = 3.39

# variant YGETCFPKGWFERKRNPSRKKQHI ; its protein stability index = 1.71

# variant YGETCFPKGRFERKRNPSRWKQHI ; its protein stability index = 1.99

# variant YGETCFPKGRFERKRNPSRKKQHK ; its protein stability index = 3.22

# variant YGETCFPKGRFERKRNPSRKKQHT ; its protein stability index = 3.42

# variant DGETCFPKGRFERKRNPSRKKQHI ; its protein stability index = 4.25

# variant YGETCFPKGRFERKRIPSRKKQHI ; its protein stability index = 2.7

# variant YGETCFPKGRFERKRNPSRKKQFI ; its protein stability index = 2.95

# variant YGETCFPKGRFERKRNPSRKKLHI ; its protein stability index = 2.4

# variant YGETCFPKGRFERKRNPSRKKVHI ; its protein stability index = 2.4

# variant YGETCFPKGRFERKRNPMRKKQHI ; its protein stability index = 2.77

# variant YGETCFPKGRFERKINPSRKKQHI ; its protein stability index = 2.28

# variant YGETCFPKGRFKRKRNPSRKKQHI ; its protein stability index = 2.91

# variant YGETCFPKGRSERKRNPSRKKQHI ; its protein stability index = 3.18

# variant YGETCFPKGRFERKRNPSRIKQHI ; its protein stability index = 2.63

# variant YGETCFPKGRFERKRNPSRLKQHI ; its protein stability index = 2.05

# variant YVETCFPKGRFERKRNPSRKKQHI ; its protein stability index = 2.74

# variant YGETCFPKGVFERKRNPSRKKQHI ; its protein stability index = 2.24

# variant YGETCFPKGRFERKRNPSRKKQHM ; its protein stability index = 2.57

# variant YGETCFPTGRFERKRNPSRKKQHI ; its protein stability index = 2.49

# variant YGETCFPKGRFERKYNPSRKKQHI ; its protein stability index = 2.02

# variant YGETCFPKCRFERKRNPSRKKQHI ; its protein stability index = 1.98

# variant YGETCFPKGRFERKNNPSRKKQHI ; its protein stability index = 3.2

# variant LGETCFPKGRFERKRNPSRKKQHI ; its protein stability index = 3.9

# variant YGETCFPKGRFERKRNPSDKKQHI ; its protein stability index = 2.95

# variant YGETCFPKGRFERKRNPSRKNQHI ; its protein stability index = 3.23

# variant YGETCFPKGRFERKRNPSRKHQHI ; its protein stability index = 2.73

# variant YGETCFPKGAFERKRNPSRKKQHI ; its protein stability index = 2.6

# variant YGETCFPKGRFERKRNPQRKKQHI ; its protein stability index = 3.03

# variant YGERCFPKGRFERKRNPSRKKQHI ; its protein stability index = 3.37

# variant YGETCFPKGRFERKKNPSRKKQHI ; its protein stability index = 2.03

# variant YGETCFPKGRFERKRNPSRDKQHI ; its protein stability index = 3.48

# variant YGETCFPKGRFERKRNPARKKQHI ; its protein stability index = 2.55

# variant YGWTCFPKGRFERKRNPSRKKQHI ; its protein stability index = 2.26

# variant YGETCFPKGRFEPKRNPSRKKQHI ; its protein stability index = 3

# variant YGETCFPKGRFERKRNPSRKKTHI ; its protein stability index = 2.67

# variant YGETCFPKGRFERKRNDSRKKQHI ; its protein stability index = 3.58

# variant YGETCFPKGRFERKREPSRKKQHI ; its protein stability index = 2.89

# variant YGETCFPKGRFERKRNPSRKWQHI ; its protein stability index = 2.17

# variant YGETCFPKGRFERKRNPSRKKHHI ; its protein stability index = 2.33

# variant YGETCFPKGRFEIKRNPSRKKQHI ; its protein stability index = 2.32

# variant YGETCFPKGRFERKRNPSRKKQHN ; its protein stability index = 3.54

# variant YGETCFPKGRFERKRNPSRKKQGI ; its protein stability index = 3.25

# variant YGETCFPKGRFERARNPSRKKQHI ; its protein stability index = 3.21

# variant YGETCFPKGRFERKRNPSKKKQHI ; its protein stability index = 2.82

# variant YGETCFPKGHFERKRNPSRKKQHI ; its protein stability index = 2.55

# variant YGETCFPKGRMERKRNPSRKKQHI ; its protein stability index = 2.55

# variant YGETCFPKGRFERKSNPSRKKQHI ; its protein stability index = 2.79

# variant YGQTCFPKGRFERKRNPSRKKQHI ; its protein stability index = 3.2

# variant HGETCFPKGRFERKRNPSRKKQHI ; its protein stability index = 4.11

# variant YGETCFPKGRFERKRNESRKKQHI ; its protein stability index = 2.93

# variant YGETCFPKGRFERKRCPSRKKQHI ; its protein stability index = 2.14

# variant YGCTCFPKGRFERKRNPSRKKQHI ; its protein stability index = 2.75

# variant YGETYFPKGRFERKRNPSRKKQHI ; its protein stability index = 1.95

# variant YGETCFPKGRFERKRNPSRKGQHI ; its protein stability index = 3.16

# variant YGETCFPKGRFERKRNPSRSKQHI ; its protein stability index = 3.17

# variant YGETCFPKGRFERKRNPSAKKQHI ; its protein stability index = 3.07

# variant YGETCFPKGRFERKRNPSGKKQHI ; its protein stability index = 2.69

# variant YGETCFPKGRFERKRVPSRKKQHI ; its protein stability index = 1.94

# variant YGECCFPKGRFERKRNPSRKKQHI ; its protein stability index = 2.12

# variant YGETCFTKGRFERKRNPSRKKQHI ; its protein stability index = 3.02

# variant YGETCFPKGRFERKRNPSRKKQHP ; its protein stability index = 2.29

# variant YGETCFPKGRFEKKRNPSRKKQHI ; its protein stability index = 2.9

# variant YGETCFPKGRFERKRNPSRKYQHI ; its protein stability index = 3.23

# variant KGETCFPKGRFERKRNPSRKKQHI ; its protein stability index = 3.75

# variant YGETCFPSGRFERKRNPSRKKQHI ; its protein stability index = 2.42

# variant YGEFCFPKGRFERKRNPSRKKQHI ; its protein stability index = 2.1

# variant YGETCLPKGRFERKRNPSRKKQHI ; its protein stability index = 3.79

# variant YGETCFPKGRFERKRNPSRKKFHI ; its protein stability index = 2.23

# variant YGETCFPKGRFERKRNPSRHKQHI ; its protein stability index = 3.09

# variant YGETCFPKGRFERKRNPSRTKQHI ; its protein stability index = 2.44

# variant CGETCFPKGRFERKRNPSRKKQHI ; its protein stability index = 3.45

# variant YGETCFPKGRFERKRNSSRKKQHI ; its protein stability index = 2.62

# variant YGETCFWKGRFERKRNPSRKKQHI ; its protein stability index = 2.57

# variant YGETCFPKGRFARKRNPSRKKQHI ; its protein stability index = 2.49

# variant YGETCFPKGRFERKRNGSRKKQHI ; its protein stability index = 2.97

# variant YGETCFLKGRFERKRNPSRKKQHI ; its protein stability index = 1.9

# variant YGETCFPKGRFERKRNCSRKKQHI ; its protein stability index = 2.37

# variant YGEWCFPKGRFERKRNPSRKKQHI ; its protein stability index = 1.02

# variant YGETCFRKGRFERKRNPSRKKQHI ; its protein stability index = 2.93

# variant YGETCFPKGRFERKRNPSRPKQHI ; its protein stability index = 2.49

# variant YKETCFPKGRFERKRNPSRKKQHI ; its protein stability index = 3.21

# variant YGETCFPHGRFERKRNPSRKKQHI ; its protein stability index = 2.1

# variant YGETCFPKGRFERKRNQSRKKQHI ; its protein stability index = 2.95

# variant YGETCFPQGRFERKRNPSRKKQHI ; its protein stability index = 2.13

# variant YGETCFPKGRFERKRNRSRKKQHI ; its protein stability index = 2.89

# variant YGETCFPKGRFERKRNPSRKKCHI ; its protein stability index = 2.14

# variant YWETCFPKGRFERKRNPSRKKQHI ; its protein stability index = 3.17

# variant YGETCGPKGRFERKRNPSRKKQHI ; its protein stability index = 3.8

# variant YGETCFPKGRFERKRNPSRRKQHI ; its protein stability index = 2.34

# variant QGETCFPKGRFERKRNPSRKKQHI ; its protein stability index = 3.96

Data provenance: the supplement of paper PMC10567573
